# assayed_system: Dopamine beta-hydroxylase (Rattus norvegicus)
# Sequence (Q05754 whole entry): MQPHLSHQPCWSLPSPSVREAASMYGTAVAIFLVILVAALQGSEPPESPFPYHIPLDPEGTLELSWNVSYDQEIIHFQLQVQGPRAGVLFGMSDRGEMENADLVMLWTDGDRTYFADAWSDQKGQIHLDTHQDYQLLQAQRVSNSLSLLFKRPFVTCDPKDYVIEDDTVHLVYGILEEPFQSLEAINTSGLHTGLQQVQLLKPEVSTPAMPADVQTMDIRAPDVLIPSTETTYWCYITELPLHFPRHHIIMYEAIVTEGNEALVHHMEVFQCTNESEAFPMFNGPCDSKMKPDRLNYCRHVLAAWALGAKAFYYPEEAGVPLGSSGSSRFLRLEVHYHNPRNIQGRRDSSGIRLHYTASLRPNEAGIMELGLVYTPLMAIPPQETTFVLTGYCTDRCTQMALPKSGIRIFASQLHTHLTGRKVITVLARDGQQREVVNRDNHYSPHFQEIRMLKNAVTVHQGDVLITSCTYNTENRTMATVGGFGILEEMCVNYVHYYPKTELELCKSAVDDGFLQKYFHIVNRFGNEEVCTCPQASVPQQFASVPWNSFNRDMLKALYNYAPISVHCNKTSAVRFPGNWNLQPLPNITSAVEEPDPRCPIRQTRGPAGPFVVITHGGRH
pIC50: −log10 of the molar value.
Output yes (1) for pIC50 not less than 4; output no (0) otherwise.

smiles_code: Oc1ccc(Cn2cc[nH]c2=S)cc1O
group: yes (1)
//
smiles_code: S=c1[nH]ccn1Cc1c(Cl)cccc1Cl
group: no (0)
//
smiles_code: Oc1c(Cl)cc(Cn2cc[nH]c2=S)cc1Cl
group: yes (1)
//
smiles_code: O=[N+]([O-])c1cc(Cn2cc[nH]c2=S)ccc1O
group: yes (1)

Now look at this one.
Is reported pIC50 greater than or equal to 4 here: COc1ccc(Cn2cc[nH]c2=S)cc1 no (0)

The reported measurements were obtained from ChEMBL document CHEMBL1124945.
